Where do these numbers come from? They come from paper PMC3649849.

- TEST_TARGET: L232A mutant TbbTIM (Trypanosoma brucei brucei, UniProt P04789, L232A)
- PROTOCOL_DESCRIPTION: Competitive inhibition of TIM-catalyzed isomerization of GAP by phosphoglycolate
- Assay type: biochemical
- CONDITIONS: read-out: Ki for inhibition by PGA trianion I^3−; pH 8.3, 25 °C, I = 0.1 (NaCl)

# COMPOUND, Ki (µM)
rows = [
    ("O=C(O)COP(=O)(O)O [PGA, Phosphoglycolate]", 12),
]
